Reference source for all entries: ChEMBL document CHEMBL3872277

assay: Inhibition of pig platelet cytosolic phospholipase A2alpha using 1-stearoyl-2-arachidonoyl-sn-glycero-3-phosphocholine/1,2-dioleoyl-sn-glycerol as substrate after 60 mins by reversed phase HPLC-UV detection analysis; design: species or system Sus scrofa
pIC50: −log10 of the molar value.
reported endpoint: pIC50

O=C(COc1ccc(-c2ccccc2)cc1)Cn1nnc2ccccc21    5.62
O=C(COc1ccc(-c2ccccc2)cc1)Cn1cnnn1    5.31
CC(Oc1ccc(-c2ccccc2)cc1)C(=O)Cn1nnc2ccccc21 (configuration not stated)    5.17

(P) CC(Oc1ccc(-c2ccccc2)cc1)C(=O)Cn1cnnn1 (configuration not stated)
(Q) CCCCCCCCCCOc1ccc(OCC(=O)COc2ccc(C(=O)O)cc2)cc1
(R) O=C(COc1ccc(-c2ccccc2)cc1)Cn1ncnn1
(S) CC(Oc1ccc(-c2ccccc2)cc1)C(=O)Cn1ncnn1 (configuration not stated)
Input: Which order do these items take when sorted by rising pIC50? List them. Kindly provide the labels arranged according to the requested ordering.
Output: P, S, R, Q
(P: 5.16, S: 5.48, R: 5.74, Q: 8.19)

* * *

assay: Thermodynamic aqueous solubility of the compound at pH 7.4 at 20 degC sonicated for 10 mins after 24 hrs UV-HPLC analysis; assay type: physicochemical; settings: read-out: Therm_solubility
reported endpoint: solubility thermodynamic at 24 h (µg/mL)

Example compounds with recorded solubility thermodynamic at 24 h:
O=C(COc1ccc(-c2ccccc2)cc1)Cn1nnc2ccccc21    2
O=C(COc1ccc(-c2ccccc2)cc1)Cn1ncnn1    10

(1) O=C1NC(=O)C(c2ccccc2)(c2ccccc2)N1
(2) CC(Oc1ccc(-c2ccccc2)cc1)C(=O)Cn1cnnn1 (configuration not stated)
(3) O=C(COc1ccc(-c2ccccc2)cc1)Cn1cnnn1
(4) CC(Oc1ccc(-c2ccccc2)cc1)C(=O)Cn1ncnn1 (configuration not stated)
Input: Hello, I need these entries ordered by solubility thermodynamic at 24 h, highest reading first. Thanks! Kindly provide the labels arranged according to the requested ordering.
Output: 1, 3, 2, 4
(1: 18 µg/mL, 3: 11 µg/mL, 2: 4 µg/mL, 4: 2 µg/mL)

* * *

IC50 data for UniProtKB P97612 follow.
Sequence (P97612 whole entry): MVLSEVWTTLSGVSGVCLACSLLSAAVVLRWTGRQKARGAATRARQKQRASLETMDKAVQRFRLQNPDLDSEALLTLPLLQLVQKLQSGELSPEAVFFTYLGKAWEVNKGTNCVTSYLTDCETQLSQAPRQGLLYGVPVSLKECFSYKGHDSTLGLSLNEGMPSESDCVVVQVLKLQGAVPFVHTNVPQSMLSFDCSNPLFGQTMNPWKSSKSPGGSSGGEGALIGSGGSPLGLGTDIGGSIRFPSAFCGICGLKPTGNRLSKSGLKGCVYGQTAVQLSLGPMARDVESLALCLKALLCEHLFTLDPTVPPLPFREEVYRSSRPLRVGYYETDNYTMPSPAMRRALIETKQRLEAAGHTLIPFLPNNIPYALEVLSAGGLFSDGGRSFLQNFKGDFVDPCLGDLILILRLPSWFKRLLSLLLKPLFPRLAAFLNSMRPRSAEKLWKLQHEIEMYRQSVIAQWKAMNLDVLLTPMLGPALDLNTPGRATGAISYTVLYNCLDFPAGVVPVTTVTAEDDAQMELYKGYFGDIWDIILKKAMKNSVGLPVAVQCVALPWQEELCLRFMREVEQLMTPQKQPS
reported endpoint: IC50 (nM)

Example molecules with recorded IC50:
O=C(COc1ccc(-c2ccc(Cl)cc2)cc1)Cn1nnc2ccccc21    21
CCCCCCCCc1ccc(OCC(=O)Cn2cnc3ncccc32)cc1    620
CC(Oc1ccc(-c2ccccc2)cc1)C(=O)Cn1nnc2ccccc21 (stereo unspecified)    13

(P) CCCCCCCCc1ccc(OCC(=O)Cn2cccn2)cc1
(Q) CC(Oc1ccc(-c2ccccc2)cc1)C(=O)Cn1ncnn1 (stereo unspecified)
Input: Endpoint returns the identifier whose IC50 is numerically larger, either P or Q . # reply format: chosen label
Output: P
(P: 840 nM, Q: 9 nM)
